Where these numbers come from: patent US20230233569A1

# tested.system: NRAS Q61K (Homo sapiens, UniProt P01111+P62937, Q61K)
# Sequence (P01111 whole entry Q61K): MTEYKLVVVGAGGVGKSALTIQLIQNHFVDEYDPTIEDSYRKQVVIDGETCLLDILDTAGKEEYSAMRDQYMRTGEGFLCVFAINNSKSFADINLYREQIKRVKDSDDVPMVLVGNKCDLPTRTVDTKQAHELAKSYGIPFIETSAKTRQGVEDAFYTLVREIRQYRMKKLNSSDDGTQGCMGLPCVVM
# Sequence (P62937 whole entry): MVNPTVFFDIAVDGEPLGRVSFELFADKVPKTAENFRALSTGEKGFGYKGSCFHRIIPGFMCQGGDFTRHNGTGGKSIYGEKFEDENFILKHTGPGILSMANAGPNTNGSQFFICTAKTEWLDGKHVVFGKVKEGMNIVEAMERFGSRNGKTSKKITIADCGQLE
# protocol.summary: Disruption of BRAF RBD interaction with Ras (FRET / MOA assay, with Cyclophilin A)
# Format: biochemical
# condition.notes: NRAS Q61K; read-out: NRAS Q61K FRET data IC50
Quick reference: IC50 of the listed items.

Look up IC50: CCn1c(-c2cccnc2[C@H](C)OC)c2c3cc(ccc31)-c1csc(n1)C[C@H](NC(=O)[C@@H](F)COC1CN(C(=O)C#CC(C)(C)N(C)C)C1)C(=O)N1CCCC(N1)C(=O)OCC(C)(C)C2 (some centres unmarked) [Example A626] 1000 to 10000 nM

Param item = C=CC(=O)N1CCO[C@@]2(CCN(C(=O)N(C)[C@H](C(=O)N[C@H]3Cc4nc(cs4)-c4ccc5c(c4)c(c(-c4cccnc4[C@H](C)OC)n5CC(F)(F)F)CC(C)(C)COC(=O)C4CCCN(N4)C3=O)C(C)C)C2)C1 (some centres unmarked) [Example A594] ; retrieve measured IC50. 10 to 100 nM

Quick one: IC50 for C=CC(=O)N1CC[C@H](C(=O)N(C)[C@H](C(=O)N[C@H]2C[C@H]3CN(CCO3)c3ccc4c(c3)c(c(-c3cccnc3[C@H](C)OC)n4CC)CC(C)(C)COC(=O)[C@@H]3CCCN(N3)C2=O)C(C)C)C1 (racemic) [Example A507] ? > 10000 nM

Please report the recorded IC50 for C=CC(=O)N1CC[C@H](C(=O)N(C)[C@H](C(=O)N[C@H]2Cc3cc(O)cc(c3)-c3ccc4c(c3)c(c(-c3cccnc3N3CC(OC)C3)n4CC)CC(C)(C)COC(=O)[C@@H]3CCCN(N3)C2=O)C(C)C)C1 [Example A060] . 1000 to 10000 nM

Given the compound CCn1c(-c2cccnc2[C@H](C)OC)c2c3cc(ccc31)-c1csc(n1)C[C@H](NC(=O)[C@H](C(C)C)N(C)C(=O)N(C)C[C@@H]1CCCN1C)C(=O)N1CCC[C@H](N1)C(=O)OCC(C)(C)C2 [Example A504] , what is its reported IC50? 1000 to 10000 nM

***
Endpoint output: IC50 of CCn1c(-c2cccnc2[C@H](C)OC)c2c3cc(ccc31)-c1csc(n1)C[C@H](NC(=O)[C@H](C(C)C)N(C)C(=O)N1CCC(N(C)C)CC1)C(=O)N1CCC[C@H](N1)C(=O)OCC(C)(C)C2 (atropisomer, axis not shown) [Example A571] . Value? 10 to 100 nM

Field request: IC50 | item: C=CC(=O)N1CC[C@H](C(=O)N(C)[C@H](C(=O)N[C@H]2Cc3cc(O)cc(c3)-c3cc(F)c4c(c3)c(c(-c3ccccc3CCOC)n4CC)CC(C)(C)COC(=O)[C@@H]3CCCN(N3)C2=O)C(C)C)C1 [Example A053] > 10000 nM

Entry under review: CCn1c(-c2cccnc2[C@H](C)OC)c2c3cc(ccc31)-c1csc(n1)C[C@H](NC(=O)N1CCCC1)C(=O)N1CCC[C@H](N1)C(=O)OCC(C)(C)C2 [Example A267] . Reported IC50? 100 to 1000 nM

Returns the measured IC50 for the input compound. Input: CCn1c(-c2cccnc2[C@H](C)OC)c2c3cc(ccc31)-c1cc(O)cc(c1)C[C@H](NC(=O)[C@H](C(C)C)N(C)C(=O)[C@@H]1OCC[C@@H]1c1cccnc1)C(=O)N1CCC[C@H](N1)C(=O)OCC(C)(C)C2 (atropisomer, axis not shown) [Example A546] 10 to 100 nM

# input compound: CCn1c(-c2cccnc2[C@H](C)OC)c2c3cc(ccc31)-c1csc(n1)C[C@H](NC(=O)[C@H](C(C)C)N(C)C(=O)N1C[C@@H]3CN(C(=O)C#CC(C)(C)N(C)C)CC[C@@H]31)C(=O)N1CCCC(N1)C(=O)OCC(C)(C)C2 (some centres unmarked) [Example A625] ; wanted: its IC50 100 to 1000 nM

Entry CCn1c(-c2cccnc2[C@H](C)OC)c2c3cc(ccc31)-c1csc(n1)C[C@H](NC(=O)[C@H](C(C)C)N(C)C(=O)N1CC(C)(OC)C1)C(=O)N1CCC[C@H](N1)C(=O)OCC(C)(C)C2 [Example A299] : reported IC50 = ? 100 to 1000 nM

====

# reported pIC50; entries follow
# tested.system: NRAS WT (Homo sapiens, UniProt P01111+P62937)
# Sequence (P01111 whole entry): as the sequence (P01111 whole entry Q61K) above, with K61Q counted along it
# Sequence (P62937 whole entry): as the sequence (P62937 whole entry) above
# protocol.summary: Ras-Raf disruption / FRET / MOA assay (BRAF RBD)
# Type: biochemical
# condition.notes: NRAS WT; read-out: NRAS WT FRET data IC50
pIC50: −log10 of the molar value.

Known pIC50 results, listed for orientation:
Which pIC50 value belongs to CCn1c(-c2cccnc2[C@H](C)OC)c2c3cc(ccc31)-c1cc(O)cc(c1)C[C@H](NC(=O)[C@H](C(C)C)N(C)C(=O)[C@@H]1CCN(C(=O)[C@@H]3CN3)[C@@H]1C)C(=O)N1CCC[C@H](N1)C(=O)OCC(C)(C)C2 (atropisomer, axis not shown) [Example 208] ? 7.00 to 8.00

// pIC50 lookup, key: CCn1c(-c2cccnc2[C@H](C)OC)c2c3cc(ccc31)-c1csc(n1)C[C@H](NC(=O)[C@H](C(C)C)N(C)C(=O)N1CC[C@@H](N(C)C(=O)[C@H]3CN3)C1)C(=O)N1CCC[C@H](N1)C(=O)OCC(C)(C)C2 (atropisomer, axis not shown) [Example 226] 6.00 to 7.00

Any idea what pIC50 was measured for CCn1c(-c2cccnc2[C@H](C)OC)c2c3cc(ccc31)-c1cccc(c1)C[C@H](NC(=O)[C@H](C1CCCC1)N1CC[C@]3(CCN(C(=O)[C@@H]4N[C@@H]4C4CC4)C3)C1=O)C(=O)N1CCC[C@H](N1)C(=O)OCC(C)(C)C2 [Example 313] ? 5.00 to 6.00

Others:
Reported pIC50 for CCn1c(-c2cccnc2[C@H](C)OC)c2c3cc(ccc31)-c1csc(n1)C[C@H](NC(=O)[C@H](C(C)C)N(C)C(=O)N1CC[C@H](N(C)C(=O)[C@H]3CN3)C1)C(=O)N1CCC[C@H](N1)C(=O)OCC(C)(C)C2 (atropisomer, axis not shown) [Example 228] : what is it? 6.00 to 7.00

For the compound CCn1c(-c2cccnc2[C@H](C)OC)c2c3cc(ccc31)-c1cc(O)cc(c1)C[C@H](NC(=O)[C@H](C(C)C)N(C)C(=O)CN(C)S(=O)(=O)[C@H]1CN1C)C(=O)N1CCC[C@H](N1)C(=O)OCC(C)(C)C2 (single isomer, unassigned) [Example 91] , what pIC50 is on record? 7.00 to 8.00

// query pIC50 value for entry CCn1c(-c2cccnc2[C@H](C)OC)c2c3cc(ccc31)-c1cc(O)cc(c1)C[C@H](NC(=O)[C@H](C(C)C)N(C)C(=O)N1CC[C@H](N(C)C(=O)[C@H]3CN3)C1)C(=O)N1CCC[C@H](N1)C(=O)OCC(C)(C)C2 (atropisomer, axis not shown) [Example 254] 6.00 to 7.00

Suppose we examine the compound CCn1c(-c2cccnc2[C@H](C)OC)c2c3cc(ccc31)-c1cc(O)cc(c1)C[C@H](NC(=O)[C@H](C(C)C)N(C)C(=O)[C@H]1C[C@@H]3N[C@@H]3C1)C(=O)N1CCC[C@H](N1)C(=O)OCC(C)(C)C2 (atropisomer, axis not shown) [Example 286] ; what pIC50 value has been reported? 6.00 to 7.00

Which measured pIC50 value corresponds to CCn1c(-c2cccnc2[C@H](C)OC)c2c3cc(ccc31)-c1cc(O)cc(c1)C[C@H](NC(=O)[C@H](C(C)C)N(C)C(=O)CN(C)S(=O)(=O)[C@@H]1CN1C)C(=O)N1CCC[C@H](N1)C(=O)OCC(C)(C)C2 (single isomer, unassigned) [Example 92] ? 7.00 to 8.00

====

# tested.system: KRAS G12S (Homo sapiens, UniProt P01116+P62937, G12S)
# Sequence (P01116 1-169 isoform P01116-2 G12S limits assumed, one chain of several): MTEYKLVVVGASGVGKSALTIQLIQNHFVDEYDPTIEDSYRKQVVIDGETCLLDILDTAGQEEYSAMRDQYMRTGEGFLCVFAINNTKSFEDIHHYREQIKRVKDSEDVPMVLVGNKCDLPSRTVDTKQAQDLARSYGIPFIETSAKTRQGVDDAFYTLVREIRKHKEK
# protocol.summary: Disruption of BRAF RBD interaction with Ras (FRET / MOA assay, with Cyclophilin A)
# Type: biochemical
# condition.notes: read-out: KRAS G12S FRET data, IC50
measured.property: IC50

Worked cases, IC50 given:
Quick check: IC50 of CCn1c(-c2cccnc2[C@H](C)OC)c2c3cc(ccc31)-c1csc(n1)C[C@H](NC(=O)[C@H](C(C)C)N(C)C(=O)N1CCC13CCN(C)CC3)C(=O)N1CCC[C@H](N1)C(=O)OCC(C)(C)C2 [Example A273] ? 10 to 100 nM

Which IC50 reading was recorded for the compound CCn1c(-c2cccnc2[C@H](C)OC)c2c3cc(ccc31)-c1csc(n1)C[C@H](NC(=O)[C@H](C(C)C)N(C)C(=O)N1CCC[C@H]1CN(C)C)C(=O)N1CCC[C@H](N1)C(=O)OCC(C)(C)C2 [Example A519] ? 1000 to 10000 nM

Form field: reported IC50 of C=CC(=O)N1CC[C@H](C(=O)N(C)[C@H](C(=O)N[C@H]2Cc3cc(O)cc(c3)-c3ccc4c(c3)c(c(-c3cncc(COC)c3)n4CC)CC(C)(C)COC(=O)[C@@H]3CCCN(N3)C2=O)C(C)C)C1 [Example A083] 100 to 1000 nM

Okay, next one:
For the compound shown here, CCn1c(-c2cccnc2[C@H](C)OC)c2c3cc(ccc31)-c1csc(n1)C[C@H](NC(=O)[C@H](C(C)C)N(C)C(=O)N1CCN(C(=O)C3COC3)CC1)C(=O)N1CCC[C@H](N1)C(=O)OCC(C)(C)C2 (atropisomer, axis not shown) [Example A606] , give the reported IC50. 10 to 100 nM
